Please respond with reported cytotoxicity at 10 µM for every item in the list.
Test: Toxicity liver stage against HepG2, at 10uM
Assay type: cell-based
Parameters: test concentration 10 uM, cell line HepG2-A16-CD81EGFP
Settings: human, HepG2-A16-CD81EGFP cells; read-out: INHIBITION
Give me the value, and tack the unit on after it.

Use the examples below as a reference point.
CN1C(=O)[C@H](OC(N)=O)[C@@H](C(=O)Nc2ccccc2)C12CCNCC2; 2.73%
COc1cc(C(C)=O)ccc1OC12CCCN(CC1)C2 (stereo unspecified); 10.2%
CSc1nccc(NCC2CNCCOC2)n1 (stereo unspecified); -5.13%
O=C(NCCN1C(=O)c2ccccc2C1=O)c1scnc1Cl; -12.3%
CCCC12CN3CC(C)(CN(C1)C3c1[nH]c(=O)[nH]c(=O)c1C)C2=O (stereo unspecified); 3.15%

Would you kindly look at the next entry?
Which cytotoxicity at 10 µM value is on record for `CN1CCn2c(-c3cnn(C)c3)cnc2C12CCN(CC1CC1)CC2` ?
7.55%

The values you see were collected from ChEMBL document CHEMBL4513216.
